Values were extracted from patent US8575185B2.

Subject of test: serotonin 5-HT1A receptor (Homo sapiens, UniProt P08908)
Sequence (P08908 whole entry): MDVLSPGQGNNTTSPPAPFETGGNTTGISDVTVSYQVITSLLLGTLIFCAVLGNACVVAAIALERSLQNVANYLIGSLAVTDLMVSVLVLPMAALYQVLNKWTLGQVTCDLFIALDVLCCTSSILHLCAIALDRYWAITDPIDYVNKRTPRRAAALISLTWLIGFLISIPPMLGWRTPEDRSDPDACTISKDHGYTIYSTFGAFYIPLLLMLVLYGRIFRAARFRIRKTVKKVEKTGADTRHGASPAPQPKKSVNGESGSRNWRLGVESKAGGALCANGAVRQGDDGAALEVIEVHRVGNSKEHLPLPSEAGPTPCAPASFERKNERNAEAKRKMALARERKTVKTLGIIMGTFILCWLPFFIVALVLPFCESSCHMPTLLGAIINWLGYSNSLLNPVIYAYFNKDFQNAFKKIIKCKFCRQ
Method notes: Serotonin, 5HT1A (Human Recombinant) Binding Assay
Measurement context: human recombinant in HEK-293 cells, [3H]-8-OH-DPAT
Counter-ions that a name gives are not always drawn.
// reported IC50 per item
The answer is to be given in nM; state only the numeric part.

{"Molecule": "COc1ccccc1N1CCN(CCCCOc2ccc3c(=O)[nH]c(=O)[nH]c3c2)CC1 [Compound 10a, hydrochloride]", "Subject of test": "serotonin 5-HT1A receptor (Homo sapiens, UniProt P08908)", "Measurement name": "IC50", "Unit abbreviation": "nM", "Val": 1.09}
{"Molecule": "O=c1[nH]c2ccccc2c(=O)n1CCCCN1CCN(c2cccc(Cl)c2Cl)CC1 [Compound 17b, hydrochloride]", "Subject of test": "serotonin 5-HT1A receptor (Homo sapiens, UniProt P08908)", "Measurement name": "IC50", "Unit abbreviation": "nM", "Val": 0.95}

Shifting focus to the molecule that follows.
Item under review: O=c1[nH]c(=O)c2ccc(OCCCCN3CCN(c4cccc(Cl)c4Cl)CC3)cc2[nH]1 [Compound 10b, hydrochloride] . Reported IC50?
1.63

###

Subject of test: dopamine-D2 short (D2S) receptor (Homo sapiens)
Method notes: Dopamine, D2s (Human Recombinant) Binding Assay
Measurement context: human recombinant in CHO cells, [3H]Spiperone
Where a name gives a salt, the structure may show the parent alone.
Examples of compounds with documented pKi follow.
Bear in mind: pKi is minus log10 of a mol/L concentration; give just that figure.

Which pKi value belongs to O=c1[nH]c2ccccc2c(=O)n1CCCCN1CCN(c2cccc(Cl)c2Cl)CC1 [Compound 17b, hydrochloride] ?
8.73

Also, COc1ccccc1N1CCN(CCCCOc2ccc3c(=O)[nH]c(=O)[nH]c3c2)CC1 [Compound 10a, hydrochloride] please.
9.13

Again, but for O=c1[nH]c(=O)c2ccc(OCCCCN3CCN(c4cccc(Cl)c4Cl)CC3)cc2[nH]1 [Compound 10b, hydrochloride]
9.37

###

Structures can show the parent of a compound that is named as a salt.
As a worked illustration, we turn to pKi data collected for serotonin 5-HT2A receptor (Homo sapiens).
# pKi = -log10(concentration in molar units)

Below are worked cases with known answers.
{"Compound": "O=c1[nH]c2ccccc2c(=O)n1CCCCN1CCN(c2cccc(Cl)c2Cl)CC1 [Compound 17b, hydrochloride]", "Val": 7.39}
{"Compound": "COc1ccccc1N1CCN(CCCCOc2ccc3c(=O)[nH]c(=O)[nH]c3c2)CC1 [Compound 10a, hydrochloride]", "Val": 6.88}

Next, consider the following compound.
What measured pKi goes with O=c1[nH]c(=O)c2ccc(OCCCCN3CCN(c4cccc(Cl)c4Cl)CC3)cc2[nH]1 [Compound 10b, hydrochloride] ?
7.69

###

Subject of test: dopamine-D2 short (D2S) receptor (Homo sapiens, UniProt P14416)
Construct: expressed in transfected cells; host or cells: CHO cells
Sequence (P14416 1-414 isoform P14416-2): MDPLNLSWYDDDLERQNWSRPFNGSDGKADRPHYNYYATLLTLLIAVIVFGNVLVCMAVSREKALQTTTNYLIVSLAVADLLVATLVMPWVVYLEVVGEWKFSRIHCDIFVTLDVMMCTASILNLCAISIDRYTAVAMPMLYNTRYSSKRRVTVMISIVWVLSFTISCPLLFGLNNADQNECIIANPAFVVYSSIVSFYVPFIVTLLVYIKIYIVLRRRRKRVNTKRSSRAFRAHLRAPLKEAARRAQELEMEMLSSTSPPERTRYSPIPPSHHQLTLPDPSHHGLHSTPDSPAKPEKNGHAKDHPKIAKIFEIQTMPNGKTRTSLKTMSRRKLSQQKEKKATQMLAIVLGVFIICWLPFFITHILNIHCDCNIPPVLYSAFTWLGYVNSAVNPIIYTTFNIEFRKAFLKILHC
Method notes: Dopamine, D2s (Human Recombinant) Binding Assay
Measurement context: human recombinant in CHO cells, [3H]Spiperone
Experimental: Dopamine, D2s (Human Recombinant) Binding Assay Receptor Source Human recombinant expressed in CHO cells Radioligand: [^3H]Spiperone (20-60 Ci/mmol) Control Compound Haloperidol Incubation Conditions The reactions were carried out in 50 mM TRIS-HCl (pH 7.4) containing 120 mM NaCl, 5 mM KCl, 5 mM MgCl2, 1 mM EDTA for 60 minutes at 25 C. The reaction was terminated by rapid vacuum filtration onto glass fiber filters. […]
Where a name gives a salt, the structure may show the parent alone.
Measurement name: pIC50
Remember the convention: pIC50 equals -log10 of concentration in molar.

Known results for compounds:
{"Compound": "COc1ccccc1N1CCN(CCCCOc2ccc3c(=O)[nH]c(=O)[nH]c3c2)CC1 [Compound 10a, hydrochloride]", "pIC50": 8.60}
{"Compound": "O=c1[nH]c2ccccc2c(=O)n1CCCCN1CCN(c2cccc(Cl)c2Cl)CC1 [Compound 17b, hydrochloride]", "pIC50": 8.20}

We now examine a further compound.
What value of pIC50 on dopamine-D2 short (D2S) receptor (Homo sapiens, UniProt P14416) does O=c1[nH]c(=O)c2ccc(OCCCCN3CCN(c4cccc(Cl)c4Cl)CC3)cc2[nH]1 [Compound 10b, hydrochloride] have?
8.87

###

We begin with a simple list: items and their reported pKi.
Subject of test: UniProt:P08908
Method notes: Serotonin, 5HT1A (Human Recombinant) Binding Assay
Measurement context: human recombinant in HEK-293 cells, [3H]-8-OH-DPAT
Counter-ions that a name gives are not always drawn.
Lab note — pKi values are minus log10 of concentrations in M.

Look over these answered cases.
{"Compound": "O=c1[nH]c(=O)c2ccc(OCCCCN3CCN(c4cccc(Cl)c4Cl)CC3)cc2[nH]1 [Compound 10b, hydrochloride]", "pKi": 9.00}
{"Compound": "COc1ccccc1N1CCN(CCCCOc2ccc3c(=O)[nH]c(=O)[nH]c3c2)CC1 [Compound 10a, hydrochloride]", "pKi": 9.18}

Next up:
Request the reported pKi associated with O=c1[nH]c2ccccc2c(=O)n1CCCCN1CCN(c2cccc(Cl)c2Cl)CC1 [Compound 17b, hydrochloride]
9.24
